# Tested on: UACC-62 melanoma
# TEST DESCRIPTION: NCI-60 one-dose screen, 48 h
# RUN CONDITIONS: 10 µM unless noted
Compounds without any hit were thinned out: in the full panel of roughly 83,000, 20% have a hit. Activity calls are given as the source filed them. How the source made its calls: active means growth percent below 10; inactive means the rest.
Outcomes you can answer with include only these: y for active, n for inactive

# example entries with known answers
MOLECULE	ANSWER LABEL
COc1ccc(CN2CCc3c(Cl)nc(N)nc3C2=O)c(OC)c1	y
Cc1ccc(-c2nc3nc(-c4ccc(F)cc4)nc(N4CCCNCC4)c3o2)cc1	y
CCCc1cc(C(N)=S)ccn1	n

In: Given Cn1cc(C2=C(c3cccc4ccccc34)C(=O)NC2=O)c2cc(Br)ccc21 , state the outcome it received in this test.
Out: n

In: Request: C=C1C(=O)O[C@H]2[C@H]1CC/C(CNS(=O)(=O)c1ccc3ccccc3c1)=C\CC[C@@]1(C)O[C@@H]21
Out: y

In: And the next one, CC(=NCc1ccccc1)c1ccc(O)cc1O ?
Out: n

In: Then this molecule: NC(=O)c1c(NC(=O)/C=C/c2cccs2)sc2c1CCC(=O)C2
Out: n

In: And for CCn1cc(C(=O)NN=C2CCCC2)c(=O)c2ccc(C)nc21 ?
Out: n

In: Same read-out for C=C1C(=O)O[C@H]2[C@H]1CC/C(COC(=O)NCCCCNC(=O)OC/C1=C/CC[C@@]3(C)O[C@H]3[C@H]3OC(=O)C(=C)[C@@H]3CC1)=C\CC[C@@]1(C)O[C@@H]21 ?
Out: y

In: Try this molecule too: O=C1OCC2=C1C(c1cccc(C(F)(F)F)c1)c1cc3c(cc1N2CCO)OCCO3 (stereo unspecified)
Out: n

In: Param item: O=C(Cn1cc(CN2CCN(c3ccnc4cc(Cl)ccc34)CC2)nn1)Nc1cccc([N+](=O)[O-])c1
Out: n

* * *

# System: RXF 393 renal
# TEST DESCRIPTION: NCI-60 one-dose screen, 48 h
# RUN CONDITIONS: 10 µM unless noted
This is part of a sample that, as a whole, favours compounds with a hit. Of some 83,000 tested, about 20% had one in any assay. Activity calls are given as the source filed them. Rule for the calls: active = growth percent below 10; inactive = the rest.
Respond using exactly one of the listed classes: true (1) = active, false (0) = inactive

Solved cases below.
MOLECULE	ANSWER LABEL
c1cc(NCCCCN2CCOCC2)c2ccc3c(ccc4c(NCCN5CCOCC5)ccnc43)c2n1	false (0)
CN(Cc1ccccc1)c1nc(Cl)c(C2CC(c3ccc4c(c3)OCO4)=NN2c2cc(Cl)cc(Cl)c2)s1 (configuration not stated)	false (0)
O=C(CCCCCCCCC(=O)N/N=C\c1ccccc1O)N/N=C\c1ccccc1O	false (0)
CONC1=Nc2cc(NC(N)=NCc3ccccc3)c(N(C)C3CCCCC3)cc2OC1	false (0)
COc1cc(OC)cc(-c2ccc(-c3ccc(C(=N)N)cn3)s2)c1	false (0)
Cc1ccc(C(=O)Nc2nc3c(s2)CN(Cc2ccccc2)CC3)cn1	false (0)
Nc1ncnc2c1C(c1ccc([N+](=O)[O-])cc1)c1sc3c(F)cccc3c1O2 (configuration not stated)	false (0)
O=C1C(c2c[nH]c3ccccc23)=C(c2coc3cc(Br)ccc23)C(=O)N1O	false (0)

In: Recorded test outcome, item C=C(C)[C@@H]1CC[C@]2(C)[C@H](CC(=O)N[C@H]3[C@@H]4C[C@](C)(C(=O)OC)CC[C@]4(C)CC[C@]32C)[C@@]1(C)CCC#N
Out: false (0)

In: And for C=C1CCC2C3(C)COC(c4ccc(NC(C)=O)cc4)OC3CCC2(C)C1C/C=C1/C(=O)OCC1O (configuration not stated) ?
Out: false (0)

* * *

# Test system: OVCAR-5 ovarian
# TEST DESCRIPTION: NCI-60 one-dose screen, 48 h
# RUN CONDITIONS: 10 µM unless noted
Compounds without any hit were thinned out: in the full panel of roughly 83,000, 20% have a hit. The source made the active and inactive calls. How the source made its calls: active means growth percent below 10; inactive means the rest.
A correct response names exactly one class from active, inactive

In: Kindly provide the recorded test outcome for the following molecule: CN(C)CCCn1c2c(c3ccc(N4CCNCC4)cc3c1=O)C(=O)c1ccccc1-2
Out: inactive

In: Next up: Cc1ccc(-c2nc3nc(-c4ccc(Cl)cc4)nc(N4CCCNCC4)c3o2)cc1
Out: active

In: Also, COC1=CC(=O)C(OC)=C(O)C1=O please.
Out: inactive

In: Record: O=C(CCN1CCOCC1)Nc1cccc(-n2cc(-c3ccncc3)c(-c3ccc(Cl)c(O)c3)n2)c1
Out: inactive

In: Next record, please: CC(C)(C)c1cc(C(C)(C)c2ccccc2)cc(Cc2cc(C(C)(C)c3ccccc3)cc(C(C)(C)C)c2O)c1O
Out: inactive

In: Similarly, N#Cc1c(N)nnn1Cc1cc(=O)oc2ccc(O)cc12 ?
Out: inactive

In: Thanks! And CN1CCN(CCCN2c3ccccc3Sc3ccc(Cl)cc32)CC1 ?
Out: inactive

In: Consider next the molecule O=C(CCl)n1nnnc1Cc1ccccc1 in the same way.
Out: inactive

* * *

# System: MDA-MB-231 breast
# TEST DESCRIPTION: NCI-60 one-dose screen, 48 h
# RUN CONDITIONS: 10 µM unless noted
This is part of a sample that, as a whole, favours compounds with a hit. Of some 83,000 tested, about 20% had one in any assay. The source made the active and inactive calls. Rule for the calls: active = growth percent below 10; inactive = the rest.
Choose one outcome from this list and give only that: active, inactive

COMPOUND	SUBJECT OF TEST	ANSWER LABEL
OB(O)c1ccsc1-c1nc2ccc3[nH]ncc3c2c2c1CCCC2	MDA-MB-231 breast	inactive
N#Cc1ccccc1OCC(=O)Nc1nc2c(s1)COc1ccccc1-2	MDA-MB-231 breast	inactive
Nc1[nH]nc(Nc2ccccc2)c1-c1nc2ccccc2s1	MDA-MB-231 breast	active
C=CCNC(=O)Cc1c(-c2ccc(OC)cc2)oc2c(OC)c3c(c(OC)c12)OCO3	MDA-MB-231 breast	inactive
COc1ccc(-c2ccccc2)cc1-c1c(Nc2cc(Cl)cc(Cl)c2O)c(=O)c1=O	MDA-MB-231 breast	inactive
Nc1nc(Nc2cccnc2)sc1C(=O)c1ccccc1F	MDA-MB-231 breast	inactive

In: Please state the recorded outcome for this compound: COc1cc(OC)cc(-c2ccc(-c3ccc(C(=N)N)cn3)s2)c1
Out: inactive

In: Queued: COc1ccc(-c2cc(-c3cccnc3)nc3sc4c(Cl)nnnc4c23)cc1OC
Out: inactive

In: Try this compound too: N#CSc1c[nH]c2ccc(/C=C/C(=O)/C=C(/C=C/c3ccc4[nH]cc(SC#N)c4c3)OB(F)F)cc12
Out: active

In: Same thing, different compound: O=C(Cc1ccc(F)cc1)c1ccccc1
Out: inactive

In: One more compound: CCOc1nc(-c2ccccc2)cc2c(O)c(C(=O)N/N=C/c3ccc(N(C)C)cc3)[nH]c(=O)c12
Out: inactive

In: Now consider CN(Cc1ccccc1)c1nc(Cl)c(C2CC(c3ccc4c(c3)OCO4)=NN2c2cc(Cl)cc(Cl)c2)s1 (stereo unspecified) .
Out: inactive

In: Also, O=C(CN1C(=O)S/C(=C\C(Cl)=C\c2ccccc2)C1=O)NC1C=CS(=O)(=O)C1 (stereo unspecified) please.
Out: inactive

* * *

Recorded growth, one value per entry.
# Test system: SW-620 colon
# TEST DESCRIPTION: NCI-60 one-dose screen, 48 h (100 = growth as untreated, 0 = no growth, -100 = all killed)
# RUN CONDITIONS: 10 µM unless noted
Compounds without any hit were thinned out: in the full panel of roughly 83,000, 20% have a hit.
Could you give me the number in %? Just the number is fine.

Illustrative cases are given below, each with its answer.
COMPOUND	QUANTITATIVE RESULT
CCOC(=O)c1c(-c2ccc(C)cc2)c(C#N)c(=O)n(-c2cccc(C(F)(F)F)c2)c1N	101
COc1ccc2c(c1)CC[C@@H]1[C@@H]2CC[C@]2(C)C3C(=CCC4C(=O)N(c5ccccc5)C(=O)C43)C[C@@H]12 (stereo partly drawn)	90.6

Moving on to the next compound.
In: Suppose we examine the compound CCCCCCCCn1ccc2cc(NC(=O)CN3CCN(c4nc(C)cc(N5CCCCC5)n4)CC3)ccc21 ; what growth value has been reported?
Out: 87.6

* * *

# System: HCT-116 colon
# TEST DESCRIPTION: NCI-60 one-dose screen, 48 h
# RUN CONDITIONS: 10 µM unless noted
# Description: Growth inhibition of the HCT-116 human tumor cell line is measured as a screen for anti-cancer activity. Cells are grown in 96 well plates and exposed to the test compound for 48 hours. Compounds are tested at a single concentration, which is 10^-5 M for most compounds. The reported endpoint is percent growth (GI% or GIPRCNT), where numbers from 0 - 100% represent growth inhibition, and numbers from -100% - 0 represent cell death. For example, a value of 40 represents 60% growth inhibition. […]
This is part of a sample that, as a whole, favours compounds with a hit. Of some 83,000 tested, about 20% had one in any assay. Activity calls are given as the source filed them. How the source made its calls: active means growth percent below 10; inactive means the rest.
Your answer must be one of the following: active, inactive

In: GET /call?item= CCNC(=S)n1nc(SC)c(C(=O)OCC)c1N returns the recorded outcome of this test.
Out: inactive

In: Input O=C(c1ccc(Nc2nccc(NCCCNc3ccnc4cc(Cl)ccc34)n2)cc1)N1CCCCC1
Out: inactive

In: Also Clc1ccc(CNc2ccc3nc(CCC4CCCCC4)[nH]c3c2)cc1 , if possible.
Out: inactive

Sourced from PubChem BioAssay (NCI)
